These measurements were taken from patent US8598132B2.

Target or system A549 (lung); recorded quantity GI50.
API: value field is a number in µM; no unit string.

Task item: Please indicate GI50 recorded for `C[C@@H]1O[C@@H](n2c3ccccc3c3c4c(c5c6ccccc6[nH]c5c32)C(=O)NC4=O)C[C@H](O)[C@H]1O`
Reply: 8.79

Task item: Write down GI50 measured for item CN[C@@H]1C[C@H]2O[C@@](C)([C@@H]1OC)n1c3ccccc3c3c4c(c5c6ccccc6n2c5c31)C(=O)NC4 [STP, staurosporine, reference compound]
Reply: 0.008

Task item: Query GI50 for C[C@H]1O[C@@H](n2c3ccccc3c3c4c(c5c6ccccc6[nH]c5c32)CNC4=O)C[C@@H](O)[C@@H]1O [formula (XV), N^13-1′-β-D-olivosyl-k252c]
Reply: 4.98

Task item: Please give measured GI50 of the following entry: C[C@@H]1O[C@@H](n2c3ccccc3c3c4c(c5c6ccccc6[nH]c5c32)CNC4=O)[C@H](O)[C@H](O)[C@H]1O [formula (XII), N^13-1′-β-L-rhamnosyl-k252c]
Reply: 2.84

Task item: Determine from records and report GI50 for C[C@]12O[C@H]([C@H](O)[C@H](O)[C@H]1O)n1c3ccccc3c3c4c(c5c6ccccc6n2c5c31)CNC4=O [formula (XVI), N^12-5′(S)-N^13-1′-(R)-L-rhamnosyl-k252c]
Reply: 0.61

###

Biological target: HGK (Homo sapiens, UniProt O95819)
Construct: purchased Invitrogen
Sequence (O95819 whole entry, species assumed): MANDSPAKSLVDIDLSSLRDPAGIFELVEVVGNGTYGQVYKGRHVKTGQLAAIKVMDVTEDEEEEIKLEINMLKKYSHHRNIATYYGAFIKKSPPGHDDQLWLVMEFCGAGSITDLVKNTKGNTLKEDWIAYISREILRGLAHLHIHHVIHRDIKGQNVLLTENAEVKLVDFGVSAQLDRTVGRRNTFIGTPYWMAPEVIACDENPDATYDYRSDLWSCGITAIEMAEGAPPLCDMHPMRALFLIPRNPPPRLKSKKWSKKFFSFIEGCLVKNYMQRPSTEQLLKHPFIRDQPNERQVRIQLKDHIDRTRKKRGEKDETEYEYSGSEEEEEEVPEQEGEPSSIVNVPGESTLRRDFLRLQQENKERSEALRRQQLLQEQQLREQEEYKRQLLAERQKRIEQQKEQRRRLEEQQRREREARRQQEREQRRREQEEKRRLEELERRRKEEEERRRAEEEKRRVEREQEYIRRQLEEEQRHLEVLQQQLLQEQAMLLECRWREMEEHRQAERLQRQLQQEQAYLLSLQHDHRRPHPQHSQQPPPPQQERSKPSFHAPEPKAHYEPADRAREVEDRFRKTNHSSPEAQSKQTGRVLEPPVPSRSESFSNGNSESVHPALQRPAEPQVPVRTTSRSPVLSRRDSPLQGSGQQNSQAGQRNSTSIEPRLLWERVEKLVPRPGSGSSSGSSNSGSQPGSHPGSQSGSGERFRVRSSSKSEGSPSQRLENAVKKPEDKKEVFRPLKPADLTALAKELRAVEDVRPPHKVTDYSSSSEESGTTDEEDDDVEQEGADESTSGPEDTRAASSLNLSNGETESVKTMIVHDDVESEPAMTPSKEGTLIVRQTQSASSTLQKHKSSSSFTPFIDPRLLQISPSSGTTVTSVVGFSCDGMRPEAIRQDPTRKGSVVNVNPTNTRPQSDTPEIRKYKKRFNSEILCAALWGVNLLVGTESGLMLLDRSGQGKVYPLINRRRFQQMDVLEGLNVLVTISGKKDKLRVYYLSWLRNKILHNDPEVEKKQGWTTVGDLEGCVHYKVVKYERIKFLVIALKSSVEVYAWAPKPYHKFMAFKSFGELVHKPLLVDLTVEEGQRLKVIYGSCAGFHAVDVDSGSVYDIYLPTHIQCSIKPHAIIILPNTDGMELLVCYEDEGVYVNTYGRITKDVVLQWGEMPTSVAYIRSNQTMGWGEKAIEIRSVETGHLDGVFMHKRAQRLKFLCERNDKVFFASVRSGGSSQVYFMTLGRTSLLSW
Assay: LabChip (Caliper) kinase assay, HGK
Type: biochemical
Settings: compound at 100 nM, read-out: remaining kinase activity (in %) / percentage of inhibition
Provide the recorded inhibition at 0.1 µM for the entries that follow.
Please give a number only; it is taken to be in %.

Task item: Read off the recorded inhibition at 0.1 µM for `C[C@H]1O[C@@H](n2c3ccccc3c3c4c(c5c6ccccc6[nH]c5c32)C(=O)NC4=O)C[C@@H](O)[C@@H]1O`
Reply: 83

Task item: Give me measured inhibition at 0.1 µM, please, for this compound: C[C@H]1O[C@@H](n2c3ccccc3c3c4c(c5c6ccccc6[nH]c5c32)CNC4=O)C[C@@H](O)[C@@H]1O [formula (XV), N^13-1′-β-D-olivosyl-k252c]
Reply: 89

Task item: Tell me its inhibition at 0.1 µM given C[C@@H]1O[C@@H](n2c3ccccc3c3c4c(c5c6ccccc6[nH]c5c32)CNC4=O)C[C@@H](O)[C@H]1O [formula (XIV), N^13-1′-β-L-digitoxosyl-k252c] as the entry.
Reply: 78

Task item: Query inhibition at 0.1 µM for `C[C@@H]1O[C@@H](n2c3ccccc3c3c4c(c5c6ccccc6[nH]c5c32)C(=O)NC4=O)[C@H](O)[C@H](O)[C@H]1O`
Reply: 89

Task item: Name the recorded inhibition at 0.1 µM of the item C[C@@H]1O[C@@H](n2c3ccccc3c3c4c(c5c6ccccc6[nH]c5c32)CNC4=O)[C@H](O)[C@H](O)[C@H]1O [formula (XII), N^13-1′-β-L-rhamnosyl-k252c] in your answer.
Reply: 91

###

Answer each item with its documented inhibition at 0.1 µM.
Molecular target: AmpKa1 (Homo sapiens, UniProt Q13131)
Construct: purchased Carna Biosciences
Sequence (Q13131 whole entry): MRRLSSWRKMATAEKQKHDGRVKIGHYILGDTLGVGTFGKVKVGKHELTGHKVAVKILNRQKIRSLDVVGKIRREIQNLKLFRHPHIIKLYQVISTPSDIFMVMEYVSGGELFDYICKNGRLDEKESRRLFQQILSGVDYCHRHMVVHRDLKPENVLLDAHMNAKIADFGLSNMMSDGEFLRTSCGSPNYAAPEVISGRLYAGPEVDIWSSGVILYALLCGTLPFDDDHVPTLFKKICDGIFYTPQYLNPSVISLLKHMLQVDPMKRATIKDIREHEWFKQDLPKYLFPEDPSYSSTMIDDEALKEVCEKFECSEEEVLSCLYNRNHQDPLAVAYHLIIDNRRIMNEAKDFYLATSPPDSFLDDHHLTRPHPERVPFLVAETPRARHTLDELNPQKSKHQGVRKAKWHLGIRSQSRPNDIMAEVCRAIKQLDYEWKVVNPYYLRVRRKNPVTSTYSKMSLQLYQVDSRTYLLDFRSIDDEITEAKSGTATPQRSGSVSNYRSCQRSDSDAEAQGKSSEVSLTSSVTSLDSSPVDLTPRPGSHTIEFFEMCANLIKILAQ
Sequence (Q9Y478 whole entry partner): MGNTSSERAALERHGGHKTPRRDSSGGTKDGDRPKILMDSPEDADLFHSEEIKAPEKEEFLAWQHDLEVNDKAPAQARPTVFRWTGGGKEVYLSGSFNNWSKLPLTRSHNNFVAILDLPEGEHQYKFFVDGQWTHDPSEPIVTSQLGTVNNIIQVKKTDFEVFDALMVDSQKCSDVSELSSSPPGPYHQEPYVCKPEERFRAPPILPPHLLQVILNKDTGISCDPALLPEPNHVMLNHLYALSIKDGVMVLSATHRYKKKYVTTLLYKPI
Sequence (P54619 whole entry partner): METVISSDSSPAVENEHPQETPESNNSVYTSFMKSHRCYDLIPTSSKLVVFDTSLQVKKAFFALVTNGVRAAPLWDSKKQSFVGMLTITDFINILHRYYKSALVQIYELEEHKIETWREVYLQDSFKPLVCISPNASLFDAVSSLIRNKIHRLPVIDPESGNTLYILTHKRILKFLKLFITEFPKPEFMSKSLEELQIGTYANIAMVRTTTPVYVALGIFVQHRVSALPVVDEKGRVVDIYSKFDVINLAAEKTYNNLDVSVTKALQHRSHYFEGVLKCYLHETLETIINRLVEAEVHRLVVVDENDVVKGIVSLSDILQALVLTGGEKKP
Assay: LabChip (Caliper) kinase assay, AmpKa1
Format: biochemical
Conditions: compound at 100 nM, read-out: remaining kinase activity (in %) / percentage of inhibition
Description: The analysis of kinase activity described here was performed using LabChip (Caliper Life Sciences), specifically the Caliper LC3000 and the EZ Reader II instruments. The kinase assay used measures the conversion of a fluorescent peptide (substrate) to a phosphorylated product. The reaction mixture, in a microplate well, is introduced by a capillary in a chip where the non-phosphorylated substrate and the phosphorylated product are separated by fluorescence induced by laser. […]
Lab book: enter the figure in %, no units written.

Task item: Identify inhibition at 0.1 µM associated with the molecule `C[C@@H]1O[C@@H](n2c3ccccc3c3c4c(c5c6ccccc6[nH]c5c32)C(=O)NC4=O)C[C@H](O)[C@H]1O`
Reply: 21

Task item: Using the record for `C[C@H]1O[C@@H](n2c3ccccc3c3c4c(c5c6ccccc6[nH]c5c32)C(=O)NC4=O)C[C@@H](O)[C@@H]1O` , state its measured inhibition at 0.1 µM.
Reply: 33

Task item: In one line, give reported inhibition at 0.1 µM of the entry `C[C@@H]1O[C@@H](n2c3ccccc3c3c4c(c5c6ccccc6[nH]c5c32)C(=O)NC4=O)[C@H](O)[C@H](O)[C@H]1O` .
Reply: 11
